Each recorded value in this set is attributed to PubChem BioAssay AID1861.

# TEST_TARGET: Neuropeptides B/W receptor type 1 (Homo sapiens) (UniProt P48145)
# Sequence (P48145 whole entry, looked up): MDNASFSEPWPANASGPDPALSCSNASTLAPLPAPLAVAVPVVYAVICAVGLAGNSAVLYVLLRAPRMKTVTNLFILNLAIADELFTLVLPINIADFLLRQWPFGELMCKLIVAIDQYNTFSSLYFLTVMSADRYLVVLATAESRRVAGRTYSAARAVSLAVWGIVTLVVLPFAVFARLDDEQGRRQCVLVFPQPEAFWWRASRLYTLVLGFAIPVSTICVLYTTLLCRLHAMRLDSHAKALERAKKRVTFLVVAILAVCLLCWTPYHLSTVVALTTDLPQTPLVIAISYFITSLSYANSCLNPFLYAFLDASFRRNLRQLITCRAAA
# MEASUREMENT_DESCRIPTION: GPR7 receptor antagonists, primary screen, cell-based, fluorescence, single concentration (AID 1861);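 note: cells stimulated with the agonist NPW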
# DETAILS: GPR7-expressing cells, fluorescence antagonist assay; at 4.4 µM
The whole screen tested about 290,000 compounds, of which about 3,100 (1.1%) were called active. Cut-off read from the data, not from the text of the source: active = inhibition above about 16% (passing the limit was not always enough); inactive = the rest. What follows is part of a selection rich in actives, with near analogues and random picks from the rest.
Permitted responses: y for active, n for inactive

Q: I'd appreciate the recorded outcome for Oc1cccc(/C=N/Nc2ccc(Cl)nn2)c1O from this test.
A: y

Further cases:
Q: I'd appreciate the recorded outcome for COc1ccc(C(C(O)C(=O)c2c[nH]c3ccccc23)N2CCN(c3ccccc3)CC2)cc1 (stereo not given) from this test.
A: y

Q: I'd appreciate the recorded outcome for Clc1ccc(N/N=C/c2cccs2)nn1 from this test.
A: n

Q: I'd appreciate the recorded outcome for O=C(COC(=O)c1ccc(F)cc1)Nc1nc2ccc([N+](=O)[O-])cc2s1 from this test.
A: n
